Test system: MCF7 breast
Assay: NCI-60 one-dose screen, 48 h
Conditions: 10 µM unless noted
The panel holds about 83,000 compounds, 20% with a hit somewhere; the sample as a whole holds those more often. Active and inactive are the calls of the source. How the source made its calls: active means growth percent below 10; inactive means the rest.
Field 'call' accepts t = active, f = inactive

Enquiry: Each molecule tested received a call. Report the one for CCN1C2=C(SC(=S)C1=C1SC(C(=O)OC)=C(C(=O)OC)S1)SC(=Nc1ccc(OC)cc1)C2=O .
Return: t

Enquiry: Each molecule tested received a call. Report the one for C=CCOc1ccc2c(c1)CC[C@@H]1[C@@H]2CC[C@@]2(C)[C@H]1CC[C@]2(C)O .
Return: f

Enquiry: Each molecule tested received a call. Report the one for COc1cc2c(c(OC)c1OC)-c1ccc(NN(C(=O)c3ccccc3)C(=O)c3ccccc3)c(=O)cc1[C@@H](NC(C)=O)CC2 (tested in a mixture with another compound) .
Return: f

Enquiry: Each molecule tested received a call. Report the one for CCCCCCCC1(C)NC(=O)NC1=O (stereo not given) .
Return: f

Enquiry: Each molecule tested received a call. Report the one for CCCCC(C#N)C(N)=O (stereo not given) .
Return: f
